Values were extracted from ChEMBL document CHEMBL5291721.

- experimental_system: Thromboxane A2 receptor (Homo sapiens, UniProt P21731); note: assay procedure not described here
- Sequence (P21731 whole entry): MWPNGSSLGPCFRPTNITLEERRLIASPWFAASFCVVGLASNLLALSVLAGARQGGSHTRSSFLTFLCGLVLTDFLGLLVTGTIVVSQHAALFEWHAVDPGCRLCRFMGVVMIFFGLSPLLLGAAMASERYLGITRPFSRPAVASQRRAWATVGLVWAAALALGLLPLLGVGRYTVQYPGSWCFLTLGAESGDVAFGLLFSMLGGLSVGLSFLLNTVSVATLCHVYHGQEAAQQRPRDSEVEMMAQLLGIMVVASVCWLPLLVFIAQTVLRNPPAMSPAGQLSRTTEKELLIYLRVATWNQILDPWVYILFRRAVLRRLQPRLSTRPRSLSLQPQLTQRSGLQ
- Assay type: functional, cell-based
property: AC50

Reference set (5 entries):
O=C(O)c1cc(O)ccc1O: > 30 µM
CC(C)COC(=O)OCN1C(=O)CN(CCN2CC(=O)N(COC(=O)OCC(C)C)C(=O)C2)CC1=O: > 30 µM
CCCNC(C)C(=O)Nc1c(C)csc1C(=O)OC (configuration not stated): > 30 µM
Nc1nc2nc[nH]c2c(=S)[nH]1: > 30 µM
C[N+](C)(C)CCO: > 30 µM

Quote AC50 with test system Thromboxane A2 receptor (Homo sapiens, UniProt P21731) for `O=C(Nc1ccc(Cl)cc1)Nc1ccc(Cl)c(Cl)c1`; note: assay procedure not described here
> 30 µM

Using Thromboxane A2 receptor (Homo sapiens, UniProt P21731) as the test system, report measured AC50 of `CC(=O)Oc1c(C)c(C)c2c(c1C)CC[C@@](C)(CCC[C@H](C)CCC[C@H](C)CCCC(C)C)O2` .
> 30 µM

Fill in: AC50 on Thromboxane A2 receptor (Homo sapiens, UniProt P21731), entry `C[C@]12CC[C@@H]3c4ccc(O)cc4CC[C@H]3[C@@H]1C[C@@H](O)[C@@H]2O`
> 30 µM

Please report AC50 with Thromboxane A2 receptor (Homo sapiens, UniProt P21731) for item `CC(=O)c1ccc2c(c1)N(CCCN(C)C)c1ccccc1S2` .
13.7 µM

Specify AC50 for CN(C)CCN1C(=O)c2ccccc2N(C)c2ccccc21 [DIBENZEPIN] , system Thromboxane A2 receptor (Homo sapiens, UniProt P21731). Note: assay procedure not described here.
> 30 µM

Give Thromboxane A2 receptor (Homo sapiens, UniProt P21731) AC50 for the following molecule: CC(=O)OCC(=O)[C@@]1(O)CC[C@H]2[C@@H]3CCC4=CC(=O)C=C[C@]4(C)[C@@]3(Cl)[C@@H](Cl)C[C@@]21C [DICHLORISONE ACETATE]
> 30 µM

# lookup: Thromboxane A2 receptor (Homo sapiens, UniProt P21731) AC50, key = `CC(=O)[C@@]1(O)CC[C@H]2[C@@H]3C=C(C)C4=CC(=O)CC[C@]4(C)[C@H]3CC[C@@]21C`
> 30 µM

Check Thromboxane A2 receptor (Homo sapiens, UniProt P21731) data and give AC50 for `CC[C@H]1OC(=O)[C@H](C)[C@@H](O[C@H]2C[C@@](C)(OC)[C@@H](O)[C@H](C)O2)[C@H](C)[C@@H](O[C@@H]2O[C@H](C)C[C@H](N(C)C)[C@H]2O)[C@](C)(O)C[C@@H](C)CN(C)[C@H](C)[C@@H](O)[C@]1(C)O` .
> 30 µM

# return AC50 for `CN(C)[C@@H](c1cccc(O)c1)[C@H]1CCCC[C@H]1O` , test system: Thromboxane A2 receptor (Homo sapiens, UniProt P21731); note: assay procedure not described here
> 30 µM

Recall the reported AC50 of `CCOC(=O)[C@H](CCc1ccccc1)N[C@@H](C)C(=O)N1[C@H](C(=O)O)C[C@H]2CCCC[C@@H]21` when tested on Thromboxane A2 receptor (Homo sapiens, UniProt P21731). Note: assay procedure not described here.
> 30 µM

Check Thromboxane A2 receptor (Homo sapiens, UniProt P21731) data and give AC50 for `Cc1cc(NS(=O)(=O)c2ccc(N)cc2)nc(C)n1` .
> 30 µM

Under Thromboxane A2 receptor (Homo sapiens, UniProt P21731): report AC50 of NNc1nnc(NN)c2ccccc12 [DIHYDRALAZINE] .
> 30 µM
